Test: Plasma PK of rosuvastatin and oral contraceptives with and without rucaparib (phase 1 DDI study, noncompartmental analysis)
Format: in vivo, human
Details: human, plasma, po, without rucaparib (day 1); single oral dose; plasma; read-out: AUC0–inf, Median (range)
measured.attribute: AUC(0-inf) (ng·h/mL)

C#C[C@]1(O)CC[C@H]2[C@@H]3CCC4=CC(=O)CC[C@@H]4[C@H]3CC[C@@]21CC : 55.4

1: C#C[C@]1(O)CC[C@H]2[C@@H]3CCc4cc(O)ccc4[C@H]3CC[C@@]21C
2: CC(C)c1nc(N(C)S(C)(=O)=O)nc(-c2ccc(F)cc2)c1/C=C/[C@@H](O)C[C@@H](O)CC(=O)O
[ask] Of 1 and 2 , whose reported AUC(0-inf) is the larger number? Please identify the chosen entry by its label.
[reply] 2
(2: 145 ng·h/mL, 1: 1 ng·h/mL)

----------
Test: Plasma PK of rosuvastatin and oral contraceptives with and without rucaparib (phase 1 DDI study, noncompartmental analysis)
Format: in vivo, human
Settings: human; without rucaparib (day 1); single oral dose; plasma; read-out: tmax, Median (range)
Description: This was a 2-part, phase 1, open-label, 2-arm DDI study in patients with advanced solid tumors. In Part 1 of the study, patients were screened for eligibility from day − 28 to − 2 and visited the study site from day − 1 to 23 (Fig. 1). […] Other PK parameters, calculated for the probe drugs, included half-life (t1/2), tmax, apparent total clearance of drug after oral administration (CL/F), and apparent volume of distribution during terminal phase (VZ/F). […]
measured.attribute: Tmax (h)

CC(C)c1nc(N(C)S(C)(=O)=O)nc(-c2ccc(F)cc2)c1/C=C/[C@@H](O)C[C@@H](O)CC(=O)O [rosuvastatin] : 1.5

1: C#C[C@]1(O)CC[C@H]2[C@@H]3CCc4cc(O)ccc4[C@H]3CC[C@@]21C [ethinylestradiol]
2: C#C[C@]1(O)CC[C@H]2[C@@H]3CCC4=CC(=O)CC[C@@H]4[C@H]3CC[C@@]21CC [levonorgestrel]
[ask] Of 1 and 2 , whose reported Tmax is the larger number? Please identify the chosen entry by its label.
[reply] 2
